Biological target: isolated recombinant JAK2 kinase domain (Homo sapiens (Human), UniProt O60674)
Sequence (O60674 849-1124): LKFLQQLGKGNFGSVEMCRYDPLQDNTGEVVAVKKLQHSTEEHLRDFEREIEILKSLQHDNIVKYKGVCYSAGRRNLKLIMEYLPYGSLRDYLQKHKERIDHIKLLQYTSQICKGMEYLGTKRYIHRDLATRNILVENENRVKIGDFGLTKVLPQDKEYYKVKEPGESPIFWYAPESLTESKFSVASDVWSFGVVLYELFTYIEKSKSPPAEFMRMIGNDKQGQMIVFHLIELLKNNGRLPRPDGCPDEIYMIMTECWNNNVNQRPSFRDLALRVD
Test: JAK2 enzyme assay (Caliper LabChip, peptide phosphorylation, Ki)
Assay type: biochemical
Settings: 0.2 nM JAK2, ATP 25 μM, Morrison tight binding model
readout.label: Ki
I'd appreciate it if you wrote the number followed by its unit.

I am curious: what Ki value has been reported for CN(C)C(=O)Cn1cc(NC(=O)c2cnn3cccnc23)c(-c2cc(Oc3ccc4c(c3)CNCC4)ccc2OC(F)F)n1 [Example 12] ?
0.75 nM

Check CN(C)C(=O)Cn1cc(NC(=O)c2cnn3cccnc23)c(-c2cc(C(F)F)ccc2OC(F)F)n1 [Example 6] too.
0.25 nM

Check CN(C)C(=O)Cn1cc(NC(=O)c2cnn3cccnc23)c(-c2cc(C(F)CF)ccc2OC(F)F)n1 (single isomer, unassigned) [Example 5] too.
0.38 nM

Check CN(C)C(=O)Cn1cc(NC(=O)c2cnn3cccnc23)c(-c2cc(Oc3ccc(C(=O)N(C)C)cc3)ccc2OC(F)F)n1 [Example 8] too.
1.81 nM

Check CN(C)C(=O)Cn1cc(NC(=O)c2cnn3cccnc23)c(-c2cc(CCF)ccc2OC(F)F)n1 [Example 9] too.
1.92 nM

Check CC(C(=O)N(C)C)n1cc(NC(=O)c2cnn3cccnc23)c(-c2cc(Cl)ccc2OC(F)F)n1 (single isomer, unassigned) [Example 11] too.
1.26 nM

Check CN(C)C(=O)Cn1cc(NC(=O)c2cnn3cccnc23)c(-c2cc(C(F)CF)ccc2OC(F)F)n1 (single isomer, unassigned) [Example 4] too.
3.26 nM

Check CN(C)C(=O)Cn1cc(NC(=O)c2c(N)nn3cccnc23)c(-c2cc(Cl)ccc2OC(F)F)n1 [Example 3] too.
0.77 nM

Check CN(C)C(=O)Cn1cc(NC(=O)c2cnn3cccnc23)c(-c2cc(CC(F)F)ccc2OC(F)F)n1 [Example 7] too.
1.15 nM

Check CC(C(=O)N(C)C)n1cc(NC(=O)c2cnn3cccnc23)c(-c2cc(Cl)ccc2OC(F)F)n1 (single isomer, unassigned) [Example 10] too.
0.83 nM

Check CN(C)C(=O)Cn1cc(NC(=O)c2cnn3cccnc23)c(-c2cc(Br)ccc2OC(F)F)n1 [Example 15] too.
0.43 nM

###

Biological target: isolated recombinant JAK1 kinase domain (Homo sapiens (Human))
Sequence (P23458 875-1153): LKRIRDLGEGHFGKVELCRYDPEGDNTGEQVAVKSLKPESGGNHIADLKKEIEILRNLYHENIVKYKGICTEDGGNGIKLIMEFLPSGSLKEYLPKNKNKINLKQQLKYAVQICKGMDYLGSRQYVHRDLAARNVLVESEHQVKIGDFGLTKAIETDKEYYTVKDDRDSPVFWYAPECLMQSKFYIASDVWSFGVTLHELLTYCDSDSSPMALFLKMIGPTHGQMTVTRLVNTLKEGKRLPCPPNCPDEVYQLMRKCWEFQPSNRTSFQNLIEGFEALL
Test: JAK1 enzyme assay (Caliper LabChip, peptide phosphorylation, Ki)
Details: 1.5 nM JAK1, ATP 25 μM, Morrison tight binding model
Protocol: The activity of the isolated recombinant JAK1 and JAK2 kinase domain was measured by monitoring phosphorylation of a peptide derived from JAK3 (Val-Ala-Leu-Val-Asp-Gly-Tyr-Phe-Arg-Leu-Thr-Thr, fluorescently labeled on the N-terminus with 5-carboxyfluorescein) using the Caliper LabChip® technology (Caliper Life Sciences, Hopkinton, Mass.). […]
So I've got a bunch of molecules here, and I need their Ki values.
Express the result in pM but write the number alone.

Value wanted: Ki (isolated recombinant JAK1 kinase domain (Homo sapiens (Human))) of entry "CN(C)C(=O)Cn1cc(NC(=O)c2cnn3cccnc23)c(-c2cc(I)ccc2OC(F)F)n1"
250

Check "CN(C)C(=O)Cn1cc(NC(=O)c2cnn3cccnc23)c(-c2cc(C(F)F)ccc2OC(F)F)n1" too.
150

Check "CN(C)C(=O)Cn1cc(NC(=O)c2cnn3cccnc23)c(-c2cc([C@@H]3C[C@H]3C#N)ccc2OC(F)F)n1" too.
250

Check "CN(C)C(=O)Cn1cc(NC(=O)c2cnn3cccnc23)c(-c2cc(Oc3ccc(C(=O)N(C)C)cc3)ccc2OC(F)F)n1" too.
830

Check "CN(C)C(=O)Cn1cc(NC(=O)c2cnn3cccnc23)c(-c2cc(OC(F)F)ccc2OC(F)F)n1" too.
260

Check "CN(C)C(=O)Cn1cc(NC(=O)c2cnn3cccnc23)c(-c2cc(CCF)ccc2OC(F)F)n1" too.
970

Check CC(C(=O)N(C)C)n1cc(NC(=O)c2cnn3cccnc23)c(-c2cc(Cl)ccc2OC(F)F)n1 (single isomer, unassigned) [Example 11] too.
580

###

Target: isolated recombinant JAK1 kinase domain (Homo sapiens (Human))
Test: JAK1 enzyme assay (Caliper LabChip, peptide phosphorylation, Ki)
Settings: 1.5 nM JAK1, ATP 25 μM, Morrison tight binding model
readout.label: pKi
pKi (log units): -log10 of the concentration in mol/L.

I am curious: what pKi value has been reported for "CN(C)C(=O)Cn1cc(NC(=O)c2cnn3cccnc23)c(-c2cc(C3CC3)ccc2OC(F)F)n1" ?
9.10

Check "CN(C)C(=O)Cn1cc(NC(=O)c2cnn3cccnc23)c(-c2cc(Cl)ccc2OC(F)F)n1" too.
9.19

Check "CN(C)C(=O)Cn1cc(NC(=O)c2c(N)nn3cccnc23)c(-c2cc(Cl)ccc2OC(F)F)n1" too.
9.47

Check "CN(C)C(=O)Cn1cc(NC(=O)c2cnn3cccnc23)c(-c2cc(Oc3ccc4c(c3)CNCC4)ccc2OC(F)F)n1" too.
9.57

###

Molecular target: isolated recombinant JAK1 kinase domain (Homo sapiens (Human))
Assay: JAK1 enzyme assay (Caliper LabChip, peptide phosphorylation, Ki)
Settings: 1.5 nM JAK1, ATP 25 μM, Morrison tight binding model
So I've got a bunch of compounds here, and I need their log10 of Ki values.
Scale: decimal log of Ki, Ki in pM.

I am curious: what log10 of Ki value has been reported for CN1CC(O)(c2cccc(Oc3ccc(OC(F)F)c(-c4nn(CC(=O)N(C)C)cc4NC(=O)c4cnn5cccnc45)c3)c2)C1 [Example 18] ?
3.50

Check CN(C)C(=O)Cn1cc(NC(=O)c2cnn3cccnc23)c(-c2cc(C(F)CF)ccc2OC(F)F)n1 (single isomer, unassigned) [Example 4] too.
3.77

Check CN(C)C(=O)Cn1cc(NC(=O)c2cnn3cccnc23)c(-c2cc(C(F)CF)ccc2OC(F)F)n1 (single isomer, unassigned) [Example 5] too.
2.23

Check CN(C)C(=O)Cn1cc(NC(=O)c2cnn3cccnc23)c(-c2cc(Br)ccc2OC(F)F)n1 [Example 15] too.
2.51

Check C=Cc1ccc(OC(F)F)c(-c2nn(CC(=O)N(C)C)cc2NC(=O)c2cnn3cccnc23)c1 [Example 13] too.
2.71

Check CC(C(=O)N(C)C)n1cc(NC(=O)c2cnn3cccnc23)c(-c2cc(Cl)ccc2OC(F)F)n1 (single isomer, unassigned) [Example 10] too.
2.61

Check CN(C)C(=O)Cn1cc(NC(=O)c2cnn3cccnc23)c(-c2cc(CC(F)F)ccc2OC(F)F)n1 [Example 7] too.
2.72

###

Target: isolated recombinant JAK2 kinase domain (Homo sapiens (Human), UniProt O60674)
Experiment: JAK2 enzyme assay (Caliper LabChip, peptide phosphorylation, Ki)
Details: 0.2 nM JAK2, ATP 25 μM, Morrison tight binding model
readout.label: pKi
pKi (log units): -log10 of the concentration in mol/L.

Value wanted: pKi (isolated recombinant JAK2 kinase domain (Homo sapiens (Human), UniProt O60674)) of entry "CN(C)C(=O)Cn1cc(NC(=O)c2cnn3cccnc23)c(-c2cc(C3CC3)ccc2OC(F)F)n1"
8.70

Check "CN(C)C(=O)Cn1cc(NC(=O)c2cnn3cccnc23)c(-c2cc(Cl)ccc2OC(F)F)n1" too.
8.99

Check "CN(C)C(=O)Cn1cc(NC(=O)c2cnn3cccnc23)c(-c2cc([C@@H]3C[C@H]3C#N)ccc2OC(F)F)n1" too.
9.21

Check "C=Cc1ccc(OC(F)F)c(-c2nn(CC(=O)N(C)C)cc2NC(=O)c2cnn3cccnc23)c1" too.
8.93

Check "CN(C)C(=O)Cn1cc(NC(=O)c2cnn3cccnc23)c(-c2cc(I)ccc2OC(F)F)n1" too.
9.77

Check "CN(C)C(=O)Cn1cc(NC(=O)c2cnn3cccnc23)c(-c2cc(OC(F)F)ccc2OC(F)F)n1" too.
9.14

Check "CN1CC(O)(c2cccc(Oc3ccc(OC(F)F)c(-c4nn(CC(=O)N(C)C)cc4NC(=O)c4cnn5cccnc45)c3)c2)C1" too.
8.81

Values compiled from patent US10307426B2.
